molecular target: rat lens aldose reductase (RLAR) (Rattus norvegicus, UniProt P07943); construct: the supernatant that retained the RLAR was collected for further tests; from tissue; host or cells: eye lens of Sprague-Dawley rats; assay: Rat lens aldose reductase (RLAR) inhibitory assay; type: biochemical; details: IC50, isolated compounds; mean ± SD (n = 3)
readout_name: IC50 (µM)
Reply numerically in µM, unit not repeated.

Req: Recorded IC50 of O=C(O)c1cc(O)c(O)c(O)c1 [Gallic acid (1), gallic acid] , please.
Resp: 11.5

----------
target: rat lens aldose reductase (RLAR) (Rattus norvegicus, UniProt P07943); construct: the supernatant that retained the RLAR was collected for further tests; from tissue; host or cells: eye lens of Sprague-Dawley rats; assay: Rat lens aldose reductase (RLAR) inhibitory assay; type: biochemical; conditions: isolated compounds; mean ± SD (n = 3); read-out: IC50
readout_name: IC50 (µM)
Reply numerically in µM, unit not repeated.

Req: Any idea what IC50 came out for Oc1cc(O)c2c(c1)O[C@H](c1ccc(O)c(O)c1)[C@@H](O)C2 on rat lens aldose reductase (RLAR) (Rattus norvegicus, UniProt P07943)?
Resp: 14.8
